Biological target: PoxCxrA17-150 (Penicillium oxalicum HP7-1)
Sequence: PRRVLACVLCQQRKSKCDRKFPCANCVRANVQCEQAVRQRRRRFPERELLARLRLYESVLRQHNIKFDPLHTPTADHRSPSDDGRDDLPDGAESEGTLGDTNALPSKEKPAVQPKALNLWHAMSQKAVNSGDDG
Test: EMSA
Conditions: EMSA: 20 mM Tris-HCl pH 8.0, 50 mM KCl, 0.1 mg/mL BSA, 5% glycerol, 1 mM DTT, 1 ug salmon sperm DNA, ~50 ng probe, 30 min at 30 C; footprinting at 30 C
PROPERTY MEASURED: binding

Query :: Which value of binding has been reported for AGGAGACGAACAAATGAAAAACAGTTGGCCAACAATTCAACCAAGACCGGCTTCCCTGGAATTGCGGGGAGGGGAGAGTCGTGAAAGTGGATAAGGCTCCTTAATTTTTTTTTTCCCTTCCTCCTGGCCATCGTGTTTTATGGAGGTTCGCTTCCGTCTTGACTATCCGCCGTCGCACTCTTAGTCTCCCCGTTGACCCTCTTTTTCTTCACATCGTCAGATCGTGATCGTTGATCGTTCGGTGCTCTTCTGCTTCTTTTGCTGCTCACCTCCTCCTCCCCCCAGCTGA (double strand) [PBM_PoxClrB-6'] in the records?
Result :: binds

Query :: Query: binding; subject: AGGAGACGAACAAATGAAAAACAGTTGGCCAACAATTCAACCAAGACCGGCTTCCCTGGAATTGCGGGGAGGGGAGAGTCGTGAAAGTGGATAAGGCTCCTTAATTTTTTTTTTCCCTTCCTCCTGGCCATCGTGTTTTATGGAGGTTCGCTTCCGTCTTGACTATCCGCCGTCGCACTCTTAGTCTCCCCGTTGACCCTCTTTTTCTTCACATCGTCAGATCGTGATCGTTGATCGTTCGGTGCTCTTCTGCTTCTTTTGCTGCTCACCTCCTCCTCCCCCCAGCTGAGTCCTT (double strand) [PoxClrB-295]
Result :: binds

Taken from paper PMC6498484.
